FYI, the data here is from patent US20130224224A1.

Biological target: T1, human CX3CR1 (human, UniProt P49238 1-355)
T1 sequence: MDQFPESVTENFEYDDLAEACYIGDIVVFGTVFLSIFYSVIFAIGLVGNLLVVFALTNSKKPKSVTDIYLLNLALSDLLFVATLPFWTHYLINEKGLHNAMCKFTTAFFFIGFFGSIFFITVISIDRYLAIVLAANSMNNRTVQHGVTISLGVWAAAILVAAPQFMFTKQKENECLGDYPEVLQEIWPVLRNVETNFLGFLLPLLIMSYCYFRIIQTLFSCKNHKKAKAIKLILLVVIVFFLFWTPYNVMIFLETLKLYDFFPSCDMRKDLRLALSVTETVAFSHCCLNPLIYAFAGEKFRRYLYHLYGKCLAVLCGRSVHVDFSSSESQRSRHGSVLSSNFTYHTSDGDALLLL
Test: cell-based or functional assay
measure.name: % block, fractalkine induced chemotaxis (%)
Give a bare numeral; the unit % is implied.

### Prompt Supply measured % block, fractalkine induced chemotaxis of CX3CR1BII016 (VHH, expressed in E. coli as described for the monovalent VHHs) EVQLVESGGGSVQAGESLRLSCAASGSIFSSNAMAWYRQAPGKQRDLVAVINSVGITKYADSVKGRFTISGDNAKNTVYLQMNSLKPEDTAVYYCTSDARRGWDTRYWGQGTQVTVSSGGGGSGGGGSGGGGSGGGGSGGGGSGGGGSGGGGSEVQLVESGGGSVQAGESLRLSCAASGSIFSSNAMAWYRQAPGKQRDLVAVINSVGITKYADSVKGRFTISGDNAKNTVYLQMNSLKPEDTAVYYCTSDARRGWDTRYWGQGTQVTVSS in your reply.
### Response 88
